- ASSAY DETAILS: total protein half-life in vivo (active degradation + dilution); higher = more stable protein
- CONDITIONS: wild type E. coli NCM3722; growth: C-lim chemostat; doubling time 12 h
Could you label it label 1 if measured total protein half-life in vivo is 9 h or higher, and label 0 otherwise?

| CHAIN SEQUENCE | GROUP LABEL |
| --- | --- |
| MALLEICCYSMECALTAQQNGADRVELCAAPKEGGLTPSLGVLKSVRQRVTIPVHPIIRPRGGDFCYSDGEFAAILEDVRTVRELGFPGLVTGVLDVDGNVDMPRMEKIMAAAGPLAVTFHRAFDMCANPLYTLNNLAELGIARVLTSGQKSDALQGLSKIMELIAHRDAPIIMAGAGVRAENLHHFLDAGVLEVHSSAGAWQASPMRYRNQGLSMSSDEHADEYSRYIVDGAAVAEMKGIIERHQAK | label 1 |
| MSNTYQKRKASKEYGLYNQCKKLNDDELFRLLDDHNSLKRISSARVLQLRGGQDAVRLAIEFCSDKNYIRRDIGAFILGQIKICKKCEDNVFNILNNMALNDKSACVRATAIESTAQRCKKNPIYSPKIVEQSQITAFDKSTNVRRATAFAISVINDKATIPLLINLLKDPNGDVRNWAAFAININKYDNSDIRDCFVEMLQDKNEEVRIEAIIGLSYRKDKRVLSVLCDELKKNTVYDDIIEAAGELGDKTLLPVLDTMLYKFDDNEIITSAIDKLKRS [P0ADK6] | label 0 |

Identify whether the reported total protein half-life in vivo of the following sequence is 9 h or greater: MASQLTDAFARKFYYLRLSITDVCNFRCTYCLPDGYKPSGVTNKGFLTVDEIRRVTRAFARLGTEKVRLTGGEPSLRRDFTDIIAAVRENDAIRQIAVTTNGYRLERDVASWRDAGLTGINVSVDSLDARQFHAITGQDKFNQVMAGIDAAFEAGFEKVKVNTVLMRDVNHHQLDTFLNWIQHRPIQLRFIELMETGEGSELFRKHHISGQVLRDELLRRGWIHQLRQRSDGPAQVFCHPDYAGEIGLIMPYEKDFCATCNRLRVSSIGKLHLCLFGEGGVNLRDLLEDDTQQQALEARISAALREKKQTHFLHQNNTGITQNLSYIGG
label 0

Identify whether the reported total protein half-life in vivo of the following sequence is 9 h or greater: MRIIDNLEQFRQIYASGKKWQRCVEAIENIDNIQPGVAHSIGDSLTYRVETDSATDALFTGHRRYFEVHYYLQGQQKIEYAPKETLQVVEYYRDETDREYLKGCGETVEVHEGQIVICDIHEAYRFICNNAVKKVVLKVTIEDGYFHNK [P0AC73]
label 1

Identify whether the reported total protein half-life in vivo of the following sequence is 9 h or greater: MSHPALTQLRALRYCKEIPALDPQLLDWLLLEDSMTKRFEQQGKTVSVTMIREGFVEQNEIPEELPLLPKESRYWLREILLCADGEPWLAGRTVVPVSTLSGPELALQKLGKTPLGRYLFTSSTLTRDFIEIGRDAGLWGRRSRLRLSGKPLLLTELFLPASPLY
label 0
